Data credit: paper PMC5666424

- tested-target: CDK1/cyclin B
- assay-notes: Protein kinase assay
- Format: biochemical, starfish
- details: 15 μmol/L ATP
measure-name: IC50

I have this molecule here, COc1cc(/C=C2\N=C(N)NC2=O)ccc1O [PAC1, polyandrocarpamine A] , and I need its recorded IC50. > 10 µM

What value of measured IC50 is listed for NC1=N/C(=C\CCNC(=O)c2cc(Br)c(Br)[nH]2)C(=O)N1 [Dispacamide] ? > 10 µM

Query: IC50; subject: NC1=NC(=Cc2c[nH]nc2-c2ccccc2)C(=O)N1 [PAC9] > 10 µM

Can you look up the measured IC50 of NC1=NC(=Cc2cccc(Br)c2)C(=O)N1 [PAC3] for me? > 10 µM

So what's the measured IC50 for this one? CN1C(=N)N=C(Nc2nc(Cc3ccc4c(c3)OCO4)cn2C)C1=O [Clathridimine] > 10 µM

----------
- tested-target: LdDYRK3 (Leishmania donovani, UniProt E9BS59)
- Sequence (E9BS59 entry or part of it): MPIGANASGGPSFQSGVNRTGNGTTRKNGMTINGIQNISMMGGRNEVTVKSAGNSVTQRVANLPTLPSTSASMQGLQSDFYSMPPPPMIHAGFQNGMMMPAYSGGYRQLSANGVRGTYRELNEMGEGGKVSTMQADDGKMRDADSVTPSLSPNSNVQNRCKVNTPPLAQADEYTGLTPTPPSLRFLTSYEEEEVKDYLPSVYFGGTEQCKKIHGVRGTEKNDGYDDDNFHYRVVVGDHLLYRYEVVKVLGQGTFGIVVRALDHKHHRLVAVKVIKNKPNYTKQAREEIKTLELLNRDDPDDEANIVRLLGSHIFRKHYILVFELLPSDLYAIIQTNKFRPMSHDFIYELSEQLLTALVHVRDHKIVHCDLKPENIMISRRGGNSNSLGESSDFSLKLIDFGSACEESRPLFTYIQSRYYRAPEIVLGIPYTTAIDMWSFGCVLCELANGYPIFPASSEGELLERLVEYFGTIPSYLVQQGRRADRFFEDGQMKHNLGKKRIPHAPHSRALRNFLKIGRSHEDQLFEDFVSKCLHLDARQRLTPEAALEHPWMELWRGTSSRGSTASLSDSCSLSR
- assay-notes: Protein kinase assay
- Assay type: biochemical
- Procedure: The parasitic kinase genes (Supplementary Data, Table S3) were optimized for expression in E. coli, synthesized, and cloned in pGEX-6P-1 (GE Healthcare, Sigma-Aldrich, St. Quentin Fallavier, France) with the type II restriction enzymes BamHI and XhoI for glutathione S-transferase (GST) fusion at the N-terminus (GenScript). Plasmids were transformed into chemically competent E. coli BL21(DE3), which were grown overnight at 37 °C in 2 × YT medium containing 100 μg/mL ampicillin. […]
pIC50: −log10 of the molar value.
measure-name: pIC50

Report pIC50 for CN1C(=O)/C(=C/c2ccc3c(c2)OCO3)N=C1N [Leucettamine B] tested on LdDYRK3 (Leishmania donovani, UniProt E9BS59). < 5.00

----------
- tested-target: PfCLK1 (Plasmodium falciparum, UniProt Q8IL19)
- Sequence (Q8IL19 entry or part of it): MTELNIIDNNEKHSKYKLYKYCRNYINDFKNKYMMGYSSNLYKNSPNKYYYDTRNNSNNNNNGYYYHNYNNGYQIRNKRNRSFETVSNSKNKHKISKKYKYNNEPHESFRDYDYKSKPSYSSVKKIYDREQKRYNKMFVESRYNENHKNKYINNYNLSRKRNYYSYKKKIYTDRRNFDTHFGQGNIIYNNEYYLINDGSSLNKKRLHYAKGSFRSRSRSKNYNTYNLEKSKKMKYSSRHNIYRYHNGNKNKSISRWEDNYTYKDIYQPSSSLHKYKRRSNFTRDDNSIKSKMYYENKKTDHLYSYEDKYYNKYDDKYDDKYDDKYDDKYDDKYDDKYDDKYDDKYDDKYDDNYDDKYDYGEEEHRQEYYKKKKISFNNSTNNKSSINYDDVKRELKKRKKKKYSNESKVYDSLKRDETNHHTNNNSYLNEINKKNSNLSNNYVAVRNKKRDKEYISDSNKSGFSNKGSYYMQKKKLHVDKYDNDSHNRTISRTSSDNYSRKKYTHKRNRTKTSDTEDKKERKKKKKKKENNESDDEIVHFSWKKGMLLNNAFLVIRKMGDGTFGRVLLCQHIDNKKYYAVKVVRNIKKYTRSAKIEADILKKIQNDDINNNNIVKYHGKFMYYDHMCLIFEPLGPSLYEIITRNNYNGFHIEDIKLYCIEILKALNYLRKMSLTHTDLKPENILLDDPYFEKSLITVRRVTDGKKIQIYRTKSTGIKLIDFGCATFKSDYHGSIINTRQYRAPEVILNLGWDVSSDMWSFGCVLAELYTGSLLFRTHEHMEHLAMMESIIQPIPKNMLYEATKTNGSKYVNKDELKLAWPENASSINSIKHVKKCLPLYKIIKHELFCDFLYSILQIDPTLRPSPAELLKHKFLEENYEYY
- assay-notes: Protein kinase assay
- Assay type: biochemical
measure-name: IC50 (nM)
Report only the number, with the unit nM understood.

Sample CN1C(=O)/C(=C/c2ccc3c(c2)OCO3)N=C1N [Leucettamine B] — what was its IC50? 790

----------
- tested-target: CLK4 (Mus musculus)
- Sequence (O35493 whole entry): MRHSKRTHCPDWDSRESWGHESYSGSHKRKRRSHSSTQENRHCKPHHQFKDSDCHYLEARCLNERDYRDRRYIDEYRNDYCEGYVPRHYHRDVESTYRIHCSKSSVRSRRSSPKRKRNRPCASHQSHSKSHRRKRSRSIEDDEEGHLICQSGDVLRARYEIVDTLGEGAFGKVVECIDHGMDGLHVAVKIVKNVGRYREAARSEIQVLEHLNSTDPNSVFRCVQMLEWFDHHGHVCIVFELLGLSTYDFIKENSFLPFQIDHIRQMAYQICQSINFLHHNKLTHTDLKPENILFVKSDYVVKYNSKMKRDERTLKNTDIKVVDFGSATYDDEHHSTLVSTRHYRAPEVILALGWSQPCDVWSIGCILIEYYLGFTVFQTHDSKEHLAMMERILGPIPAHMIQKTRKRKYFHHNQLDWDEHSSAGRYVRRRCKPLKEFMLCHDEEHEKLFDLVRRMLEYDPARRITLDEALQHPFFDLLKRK
- assay-notes: Protein kinase assay
- details: IC50 CLK4, 15 μmol/L ATP
measure-name: IC50 (nM)

CN1C(=O)/C(=C/c2ccc3c(c2)OCO3)N=C1N | 120
COc1cc(/C=C2\N=C(N)NC2=O)ccc1O [Polyandrocarpamine A] | 320
NC1=N/C(=C\c2ccc(O)c(O)c2)C(=O)N1 [Polyandrocarpamine B] | 820

A: NC1=N/C(=C\c2ccc(O)c(O)c2)C(=O)N1 [PAC2, polyandrocarpamine B]
B: CN1C(=N)N=C(Nc2nc(Cc3ccc4c(c3)OCO4)cn2C)C1=O
Between A and B , which one shows the smaller IC50 number? // output: label of the selected item A
(A: 950 nM, B: 3500 nM)

----------
- tested-target: TbCLK1 (Trypanosoma brucei brucei, UniProt Q382U0)
- Sequence (Q382U0 entry or part of it): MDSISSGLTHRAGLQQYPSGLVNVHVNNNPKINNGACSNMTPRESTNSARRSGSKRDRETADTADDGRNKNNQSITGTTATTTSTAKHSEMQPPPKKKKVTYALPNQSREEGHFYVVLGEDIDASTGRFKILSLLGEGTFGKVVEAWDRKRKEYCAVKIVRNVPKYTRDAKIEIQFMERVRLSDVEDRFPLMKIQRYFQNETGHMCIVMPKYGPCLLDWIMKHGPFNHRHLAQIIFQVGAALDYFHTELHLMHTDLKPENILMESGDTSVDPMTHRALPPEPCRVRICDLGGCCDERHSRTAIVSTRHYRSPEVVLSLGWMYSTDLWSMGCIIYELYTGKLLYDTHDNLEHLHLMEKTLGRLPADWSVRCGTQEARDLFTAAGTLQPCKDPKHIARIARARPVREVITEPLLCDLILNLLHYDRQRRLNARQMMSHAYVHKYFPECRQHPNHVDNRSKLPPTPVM
- assay-notes: Protein kinase assay
- Type: biochemical
measure-name: IC50

What value of IC50 has been reported for the following compound? CN1C(=O)/C(=C/c2ccc3c(c2)OCO3)N=C1N [Leucettamine B] > 10 µM

----------
- tested-target: CLK2 (Mus musculus, UniProt O35491)
- Sequence (O35491 whole entry): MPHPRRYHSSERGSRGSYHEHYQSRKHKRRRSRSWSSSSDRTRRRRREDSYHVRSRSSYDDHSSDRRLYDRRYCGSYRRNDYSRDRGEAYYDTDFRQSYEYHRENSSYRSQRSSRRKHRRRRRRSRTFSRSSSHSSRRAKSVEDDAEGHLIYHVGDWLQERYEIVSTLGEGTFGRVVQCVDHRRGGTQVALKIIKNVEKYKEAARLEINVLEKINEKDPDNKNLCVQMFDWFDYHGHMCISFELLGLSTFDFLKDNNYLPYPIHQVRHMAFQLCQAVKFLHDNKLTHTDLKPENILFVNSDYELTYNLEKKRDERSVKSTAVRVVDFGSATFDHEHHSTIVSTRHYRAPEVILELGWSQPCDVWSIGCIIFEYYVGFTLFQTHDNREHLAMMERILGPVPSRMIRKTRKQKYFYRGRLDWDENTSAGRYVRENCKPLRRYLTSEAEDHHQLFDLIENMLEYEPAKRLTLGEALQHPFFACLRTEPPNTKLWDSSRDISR
- assay-notes: Protein kinase assay
- details: IC50 CLK2, 15 μmol/L ATP
measure-name: IC50 (nM)

Field: example entries. Status: answers known.
COc1cc(/C=C2\N=C(N)NC2=O)ccc1O [PAC1, polyandrocarpamine A] | 1200
NC1=N/C(=C\c2ccc(O)c(O)c2)C(=O)N1 [PAC13, polyandrocarpamine B] | 2420

a: CN1C(=O)N=C(Nc2nc(Cc3ccc4c(c3)OCO4)cn2C)C1=O
b: NC1=NC(=O)/C(=C2\CCNC(=O)c3[nH]c(Br)cc32)N1 [Hymenialdisine, reference compound]
Between these two entries, a and b , state which has the higher IC50. Choose, then provide that item's label. a
